- Experimental System: T1, human serum albumin (human, UniProt P02768 25-609)
- T1 construct: also called HSA
- Measurement Description: SPR, single cycle kinetics, pH 7.4
Reported Kd values for a set of binders
Your answer should be a plain number; it is taken to be in nM.

M79-H3 (VHH) VHH: EVQLVESGGGLVQPGGSLRLSCAASGSTFSSSSVGWYRQAPGKQRELVSAITSGGSTNTADSVKGRFTISRDNSKNTLYLQMNSLRAEDTAVYYCNVAGRNWVPISRYSPGPYWGQGTLVTVSS ... 53.3
Rh34-H3 (VHH) VHH: QVQLVESGGGLVQPGGSLRLSCAASGRTISLYAVGWFRQAPGKEREFVAAISWTDSSTYYADSVKGRFTISRDNSKNTLYLQMNSLRAEDTAVYYCAADVSIRGLQKYEYDYWGQGTLVTVSS ... 1370
Rh46-H1 (VHH) VHH: EVQLVESGGGLVQPGGSLRLSCAASTRTFSSYIMGWFRQAPGKGLELVSAISWSGRMTHYADSVKGRFTISRDNSKNTLYLQMNSLRAEDTAVYYCAADRTTAWGAPRSQYDSWGQGTLVTVSS ... 583

# input for lookup
Request: Requested field: Kd. Item: M79 sdAb (VHH, also called M79 VHH) VHH: QVKLEESGGGLVQAGGSLKLSCAASGSTFSSSSVGWYRQAPGQQRELVAAITSGGSTNTADSVKGRFTMSRDNAKNTVYLQMRDLKPEDTAVYYCNVAGRNWVPISRYSPGPYWGQGTQVTVSS
Result: 122
